Assay: Concentration in blood of male Wister rats
Assay type: in vivo
Conditions: rat, plasma, 30 mg/kg, 30 mg/kg water suspension, 6 hr.
The following compounds are listed with their measured concentration at 6 h values.
Readout label: concentration at 6 h (ng/mL)

| Compound | Readout label | Observed result |
| --- | --- | --- |
| CN(C(=O)CCCOc1cccc2c1CCC(=O)N2)C1CCCCC1 | concentration at 6 h | 540 |
| CCN(C(=O)CCCOc1ccc2[nH]c(=O)ccc2c1)c1ccccc1 | concentration at 6 h | 460 |
| O=C1CCc2cc(OCCCC(=O)N(C3CCCCC3)C3CCCCC3)ccc2N1 | concentration at 6 h | 690 |
| CC1CCCCC1N(C)C(=O)CCCOc1ccc2[nH]c(=O)ccc2c1 (stereo not shown) | concentration at 6 h | 530 |
